This collection of values is drawn from patent US8822448B2.

PROPERTY: melting point

In the examples that follow, each entry is paired with its recorded melting point.
>>> print(df.to_string())
                                   compound         result
0  COc1cc2c(cn1)N(C(=O)c1ccc3c(c1)[nH]c(=O)c1cnn(C4CCOCC4)c13)CC2 [Example 15]  337 to 340 °C
1  Cc1cc2[nH]c(=O)c3cnn(C4CCCC4)c3c2cc1C(=O)N1CCN(C2CCOCC2)CC1 [Example 58]  263 to 265 °C
2  COCCCCN1CCN(C(=O)c2cc3c(cc2C)[nH]c(=O)c2cnn(CC4CC4)c23)CC1.Cl [Example 103]  207 to 208 °C
3  O=C(c1ccc2c(c1)[nH]c(=O)c1cnn(C3CCOCC3)c12)N1CCCC(c2ccccc2)C1 (stereo not shown) [Example 11]  298 to 301 °C
4  COCCCCN1CCN(C(=O)c2cc3c(cc2C)[nH]c(=O)c2cnn(C4CCC4)c23)CC1 [Example 79]  161 to 163 °C

input: Name the reported melting point value associated with the compound Cc1cc2[nH]c(=O)c3cnn(C4CCOCC4)c3c2cc1C(=O)N1CCC(COC2CC2)CC1 [Example 217]
output: 210 to 211 °C

input: Name the reported melting point value associated with the compound O=C(c1ccc2c(c1)[nH]c(=O)c1cnn(C3CCOCC3)c12)N1Cc2cccc(F)c2C1 [Example 19]
output: 312 to 318 °C (dec.)

input: Name the reported melting point value associated with the compound CCCOC1CCN(C(=O)c2cc3c(cc2C)[nH]c(=O)c2cnn(C4CCOCC4)c23)CC1 [Example 53]
output: 216 to 218 °C

* * *

# TEST TARGET: PDE9 (Homo sapiens (Human))
# Sequence (O76083 whole entry): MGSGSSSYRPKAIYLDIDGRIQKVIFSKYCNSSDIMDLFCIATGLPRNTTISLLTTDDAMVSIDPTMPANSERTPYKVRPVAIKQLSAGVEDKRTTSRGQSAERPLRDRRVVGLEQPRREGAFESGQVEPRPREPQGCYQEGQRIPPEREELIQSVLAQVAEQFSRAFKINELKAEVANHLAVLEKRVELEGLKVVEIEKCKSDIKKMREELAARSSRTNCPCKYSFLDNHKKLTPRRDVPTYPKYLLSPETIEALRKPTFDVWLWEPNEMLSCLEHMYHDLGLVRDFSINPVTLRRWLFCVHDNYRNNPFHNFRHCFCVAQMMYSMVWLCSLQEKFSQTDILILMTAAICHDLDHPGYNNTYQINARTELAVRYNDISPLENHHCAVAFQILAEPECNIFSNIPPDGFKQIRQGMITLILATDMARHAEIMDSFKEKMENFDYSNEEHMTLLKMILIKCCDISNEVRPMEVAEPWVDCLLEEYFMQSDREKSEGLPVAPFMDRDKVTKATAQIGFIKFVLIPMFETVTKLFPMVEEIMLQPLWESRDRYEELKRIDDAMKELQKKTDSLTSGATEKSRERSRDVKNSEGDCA
# TEST DESCRIPTION: PDE9-inhibiting activity (SPA enzyme assay)
# Type: biochemical
# TEST CONDITIONS: IC50 values; cGMP 1 μM substrate, 30° C.; read-out: PDE9 inhibition
Where a name gives a salt, the structure may show the parent alone.
Doc: threshold 0.01 µM (exclusive). Items with IC50 beneath it return yes; others return no.

In [3]: df
Out[3]:
                                   compound  assigned_class
0  CCN1CCN(C(=O)c2cc3c(cc2C)[nH]c(=O)c2cnn(C4CCN(C)CC4)c23)C[C@@H]1c1ccccc1              no
1  CCOC1CCN(C(=O)c2cc3c(cc2C)[nH]c(=O)c2cnn(C4CCOCC4)c23)CC1             yes
2  Cc1cc2[nH]c(=O)c3cnn(CC4CC4)c3c2cc1C(=O)N1C[C@@H](C)N(CCC(F)(F)F)C[C@@H]1C              no
3  COCCCCN1C[C@H](C)N(C(=O)c2cc3c(cc2C)[nH]c(=O)c2cnn(CC4CC4)c23)C[C@H]1C             yes
4  Cc1cc2[nH]c(=O)c3cnn(C4CCOCC4)c3c2cc1C(=O)N1CCN(Cc2cccnc2)CC1 [Example 2, dihydrochloride]              no

// switching to the query compound
input: Input CCOCCCCN1CCN(C(=O)c2cc3c(cc2C)[nH]c(=O)c2cnn(C4CCOCC4)c23)CC1 ; condition: IC50 strictly below 0.01 µM. Does it hold?
output: no
